Header: pIC50 / UniProt:O75914 / multiple publications
Sequence (O75914 whole entry): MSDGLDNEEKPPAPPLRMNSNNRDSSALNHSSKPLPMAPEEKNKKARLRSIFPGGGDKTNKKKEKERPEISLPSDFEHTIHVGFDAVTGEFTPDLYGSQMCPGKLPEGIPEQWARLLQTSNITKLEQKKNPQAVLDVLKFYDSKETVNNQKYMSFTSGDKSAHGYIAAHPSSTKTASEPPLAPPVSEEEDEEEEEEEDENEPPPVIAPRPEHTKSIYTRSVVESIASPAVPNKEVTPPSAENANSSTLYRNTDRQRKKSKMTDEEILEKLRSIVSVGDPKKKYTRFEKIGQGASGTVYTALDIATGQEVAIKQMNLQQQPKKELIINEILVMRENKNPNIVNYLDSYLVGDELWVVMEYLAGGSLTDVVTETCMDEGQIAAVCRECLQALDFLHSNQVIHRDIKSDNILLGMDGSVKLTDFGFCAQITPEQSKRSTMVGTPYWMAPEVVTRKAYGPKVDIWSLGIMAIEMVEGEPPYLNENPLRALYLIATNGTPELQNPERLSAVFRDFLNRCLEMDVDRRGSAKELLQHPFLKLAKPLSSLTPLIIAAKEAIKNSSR
pIC50: −log10 of the molar value.

molecule | system tested | reported endpoint | data value
CCn1c(=O)c(-c2ccc(-c3cc(C)nc(C)n3)cc2Cl)cc2cnc(Nc3ccc(C4CCN(C)CC4)cc3)nc21 | UniProt:O75914 | pIC50 | 6.30 to 7.30

Field pIC50 (system: UniProt:O75914) for entry "NCCNc1ccc(-c2ccnc(Nc3ccc(N4CCNCC4)cc3)n2)cn1" = 5.00 to 6.00

Field pIC50 (system: UniProt:O75914) for entry "CC(=O)N(C)c1cc(-c2cc3cnc(Nc4ccc(CCN(C)C)cc4)nc3n(C)c2=O)c(Cl)cc1-c1cccnc1" = 6.30 to 7.30

Field pIC50 (system: UniProt:O75914) for entry "CCn1c(=O)c(-c2ccc(-c3cccnc3)s2)cc2cnc(Nc3ccc(N4CCN(C)CC4)cc3)nc21" = < 5.30

Field pIC50 (system: UniProt:O75914) for entry "CCS(=O)(=O)c1ccccc1Cn1c(=O)ccc2cnc(Nc3ccc(N4CCN(C)CC4)cc3)nc21" = 5.30 to 6.30

Field pIC50 (system: UniProt:O75914) for entry "CCn1c(=O)c(-c2ccc(C3CC3)cc2C2CC2)cc2cnc(Nc3ccc(N4CCN(C)CC4)cc3)nc21" = 5.30 to 6.30

Field pIC50 (system: UniProt:O75914) for entry "CCn1c(=O)c(-c2ccc(-c3cnc(C)s3)nc2)cc2cnc(Nc3ccc(C4CCN(C)CC4)cc3)nc21" = 5.30 to 6.30

Field pIC50 (system: UniProt:O75914) for entry CC(c1ccccc1C(F)(F)F)n1c(=O)ccc2cnc(Nc3ccc(N4CCN(C)CC4)cc3)nc21 (centres unmarked) = < 5.00
